Tested on: P. falciparum NF54-pfs16-GFP early (I-III) stage gametocytes
Test: relative % inhibition of viable gametocyte number; higher = more gametocytocidal
Details: 0.5 µM; stage: early (I-III) gametocyte; incubation 72 h
Label 0 if relative % inhibition falls below 20%; label 1 in every other case.

Answered examples (6):
[[record]]
compound = "CCCCNc1nc(NC(C)(C)C)nc(NC(C)(C)C)n1"
group = 0

[[record]]
compound = "CCN1CCN(Cc2ccc(NC(=O)c3cc4ccc5cccnc5c4[nH]3)cc2)CC1"
group = 1

[[record]]
compound = "COc1ccc(-c2cc3c(SCC(=O)Nc4cc(C(F)(F)F)ccc4Cl)nccn3n2)cc1"
group = 0

[[record]]
compound = "Cc1ccc2nc(C)cc(Nc3cccc(C(F)(F)F)c3)c2c1"
group = 0

[[record]]
compound = "Oc1c2c(nc3ccccc13)CCCC2"
group = 0

[[record]]
compound = "Clc1ccc2c(N3CCCC3)ccnc2c1"
group = 1


Req: Would you say O=C(Nc1ccc(-c2nc3cc(NC(=O)c4ccc(Cl)cc4)ccc3[nH]2)cc1)c1ccc(Cl)cc1 shows relative % inhibition at minimum 20%?
Resp: 0

Req: Would you say COC(=O)c1ccc(C2C3=C(O)CC(c4ccc(F)cc4)CC3=Nc3ccccc3N2C(=O)c2ccccc2)cc1 (stereo unspecified) shows relative % inhibition at minimum 20%?
Resp: 1

Req: Would you say Oc1ccccc1CN1CCN(C(c2ccccc2)c2ccccc2)CC1 shows relative % inhibition at minimum 20%?
Resp: 0

Req: Would you say c1ccc(Cn2c(N=Nc3c(Nc4ccccc4)ccc4ccccc34)nc3ccccc32)cc1 shows relative % inhibition at minimum 20%?
Resp: 1

Req: Would you say Clc1cc(Br)ccc1-c1ccc(CNCC2CCNCC2)o1 shows relative % inhibition at minimum 20%?
Resp: 1
